Every entry's value here was drawn from ChEMBL document CHEMBL1641512.

- system: Beta-nerve growth factor (Homo sapiens) (UniProt P01138)
- Sequence (P01138 122-241 limits assumed): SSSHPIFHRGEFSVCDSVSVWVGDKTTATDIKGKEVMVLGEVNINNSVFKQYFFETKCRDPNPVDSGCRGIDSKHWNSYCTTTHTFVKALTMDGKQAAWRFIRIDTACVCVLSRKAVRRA
- test: Induction of neurotrophic factor mRNA expression in human 1321N1 cells at 100 uM by RT-PCR analysis relative to beta-actin mRNA expression
- Format: cell-based
parameter: fold change (FC)

- given.smiles: "C[C@@H]1C[C@H]2Cc3ncc(-c4ccc5c(n4)C[C@@H]4C[C@@H](C)C[C@]56NCCC[C@H]46)cc3[C@]3(C1)NCCC[C@H]23"
  parameter: "fold change (FC)"
  reported: 3.9
- given.smiles: "C[C@@H]1C[C@H]2Cc3ncc(-c4ccc5c(n4)C(=O)[C@@H]4C[C@@H](C)C[C@]56NCCC[C@H]46)cc3[C@]3(C1)NCCC[C@H]23"
  parameter: "fold change (FC)"
  reported: 2.3
- given.smiles: "C[C@@H]1C[C@H]2CC3=C(CC[C@H](c4cnc5c(c4)[C@@]46C[C@H](C)C[C@@H](C5)[C@H]4CCCN6)N3)[C@]3(C1)NCCC[C@H]23"
  parameter: "fold change (FC)"
  reported: 2.4
- given.smiles: "C[C@@H]1C[C@H]2C[C@H]3N[C@H](c4cnc5c(c4)[C@@]46C[C@H](C)C[C@@H](C5)[C@H]4CCCN6)CC[C@H]3[C@]3(C1)NCCC[C@H]23"
  parameter: "fold change (FC)"
  reported: 2.8
